Experiment: Analgesic effect, acetic acid writhing test on mice
Settings: Mus musculus, po, read-out: Analgesic effect ED50 p.o.
ATTRIBUTE MEASURED: ED50 (mg/kg)
Your answer is read as mg/kg, so omit the unit and give the number.

Qu. Please look at this compound and report its ED50: CCCCC1=Nc2cnc3ccccc3c2N(C(C)=O)N1 [Example 6]
Ans. 320

Qu. Please look at this compound and report its ED50: CCCCC1C(=O)N(c2ccccc2)N(c2ccccc2)C1=O [phenylbutazone, reference compound]
Ans. 60

Qu. Please look at this compound and report its ED50: CCCCCC1=Nc2cnc3ccccc3c2N(C(C)=O)N1 [Example 1]
Ans. 125

Qu. Please look at this compound and report its ED50: CC(=O)N1NC(CCC(C)C)=Nc2cnc3ccccc3c21 [Example 10]
Ans. 100

Qu. Please look at this compound and report its ED50: CC(=O)Nc1ccc(O)cc1 [paracetamole, p-hydroxyacetanilide, reference compound]
Ans. 180

* * *

Test: in vivo
Conditions: mouse, mice, female and male, 18 to 24 g, oral
ATTRIBUTE MEASURED: LD50 (mg/kg)
Your answer is read as mg/kg, so omit the unit and give the number.

Qu. Please look at this compound and report its LD50: CCCCCC1=Nc2cnc3ccccc3c2N(C(C)=O)N1
Ans. 2000

Qu. Please look at this compound and report its LD50: CCCCC1=Nc2cnc3ccccc3c2N(C(C)=O)N1
Ans. 2000

Qu. Please look at this compound and report its LD50: CC(=O)N1NC(CC(C)C)=Nc2cnc3ccccc3c21
Ans. 2000

Qu. Please look at this compound and report its LD50: CC(=O)N1NC(C(C)(C)C)=Nc2cnc3ccccc3c21
Ans. 2000

Qu. Please look at this compound and report its LD50: CC(=O)N1NC(CCC(C)C)=Nc2cnc3ccccc3c21
Ans. 2000

Qu. Please look at this compound and report its LD50: CC(=O)N1C(c2ccccc2)=NNc2c1cnc1ccccc21
Ans. 2000

Qu. Please look at this compound and report its LD50: CN1C(=O)OC(C)(C)C1=O [trimethadione, 3,5,5-trimethyloxazolidine-2,4-dione, reference compound]
Ans. 2050

Qu. Please look at this compound and report its LD50: CC(=O)Nc1ccc(O)cc1 [paracetamole, p-hydroxyacetanilide, reference compound]
Ans. 540

Qu. Please look at this compound and report its LD50: CCCCCCCCC1=Nc2cnc3ccccc3c2N(C(C)=O)N1
Ans. 2000

* * *

Give measured Therapeutic index LD50/ED50 (tetrabenazine antagonism) for each item. Keep answers brief.
Experiment: Tetrabenazine antagonism
Type: in vivo
Settings: p.o., tetrabenazine
Provide a numeric answer; units are not to be included.

Qu. Please look at this compound and report its Therapeutic index LD50/ED50 (tetrabenazine antagonism): CC(=O)N1NC(CC(C)C)=Nc2cnc3ccccc3c21
Ans. 100

Qu. Please look at this compound and report its Therapeutic index LD50/ED50 (tetrabenazine antagonism): CN(C)CCC=C1c2ccccc2CCc2ccccc21 [amitriptylin, reference compound]
Ans. 19

Qu. Please look at this compound and report its Therapeutic index LD50/ED50 (tetrabenazine antagonism): CCC(CC)C1=Nc2cnc3ccccc3c2N(C(C)=O)N1
Ans. 37

Qu. Please look at this compound and report its Therapeutic index LD50/ED50 (tetrabenazine antagonism): CC(=O)N1NC(CCC(C)C)=Nc2cnc3ccccc3c21
Ans. 138

* * *

Assay: Anticonvulsive effect, inhibition of the spasm provoked by electroshock
Type: in vivo, white mice
Conditions: Mus musculus; white mice, oral 1 hour prior to electroshock (45 mA, 50 Hz, 0.4 sec); read-out: Inhibition of the spasm provoked by electroshock ED50 p.o.
ATTRIBUTE MEASURED: ED50 (mg/kg)
Your answer is read as mg/kg, so omit the unit and give the number.

Qu. Please look at this compound and report its ED50: CC(=O)N1NC(CC(C)C)=Nc2cnc3ccccc3c21 [Example 8]
Ans. 200

Qu. Please look at this compound and report its ED50: CN1C(=O)OC(C)(C)C1=O [trimethadione, 3,5,5-trimethyloxazolidine-2,4-dione, reference compound]
Ans. 400

Qu. Please look at this compound and report its ED50: CCCCCCCCC1=Nc2cnc3ccccc3c2N(C(C)=O)N1 [Example 7]
Ans. 450

Qu. Please look at this compound and report its ED50: CCCCC1=Nc2cnc3ccccc3c2N(C(C)=O)N1 [Example 6]
Ans. 160

* * *

Experiment: Narcosis potentiating effect (hexobarbital sleeping time)
Format: in vivo, mice
Conditions: Mus musculus; mice, oral 1 hour before hexobarbital 40 mg/kg i.v.; 150 percent prolongation of sleeping time = positive response; read-out: Narcosis potentiating effect ED50 p.o.
ATTRIBUTE MEASURED: ED50 (mg/kg)
Your answer is read as mg/kg, so omit the unit and give the number.

Qu. Please look at this compound and report its ED50: CCCCC1=Nc2cnc3ccccc3c2N(C(C)=O)N1
Ans. 125

Qu. Please look at this compound and report its ED50: CC(=O)N1NC(CC(C)C)=Nc2cnc3ccccc3c21
Ans. 70

Qu. Please look at this compound and report its ED50: CCCCCC1=Nc2cnc3ccccc3c2N(C(C)=O)N1
Ans. 200

Qu. Please look at this compound and report its ED50: CC(=O)N1NC(CCC(C)C)=Nc2cnc3ccccc3c21
Ans. 100

Qu. Please look at this compound and report its ED50: CC(=O)N1C(c2ccccc2)=NNc2c1cnc1ccccc21
Ans. 150

* * *

Assay: Anticonvulsive effect, inhibition of the spasm provoked by electroshock
Assay type: in vivo, white mice
Conditions: mice, p.o., electroshock
Give measured Therapeutic index LD50/ED50 (electroshock) for each item. Keep answers brief.
Provide a numeric answer; units are not to be included.

Qu. Please look at this compound and report its Therapeutic index LD50/ED50 (electroshock): CC(=O)N1NC(CC(C)C)=Nc2cnc3ccccc3c21 [Example 8]
Ans. 10

Qu. Please look at this compound and report its Therapeutic index LD50/ED50 (electroshock): CN1C(=O)OC(C)(C)C1=O [trimethadione, 3,5,5-trimethyloxazolidine-2,4-dione, reference compound]
Ans. 5.3

Qu. Please look at this compound and report its Therapeutic index LD50/ED50 (electroshock): CCCCC1=Nc2cnc3ccccc3c2N(C(C)=O)N1 [Example 6]
Ans. 12.5

Qu. Please look at this compound and report its Therapeutic index LD50/ED50 (electroshock): CCCCCCCCC1=Nc2cnc3ccccc3c2N(C(C)=O)N1 [Example 7]
Ans. 4.4

* * *

Give measured Therapeutic index LD50/ED50 (analgesic effect) for each item. Keep answers brief.
Experiment: Analgesic effect, acetic acid writhing test on mice
Conditions: mice, p.o., acetic acid writhing

Qu. Please look at this compound and report its Therapeutic index LD50/ED50 (analgesic effect): CC(=O)Nc1ccc(O)cc1 [paracetamole, p-hydroxyacetanilide, reference compound]
Ans. 3

Qu. Please look at this compound and report its Therapeutic index LD50/ED50 (analgesic effect): CCCCC1=Nc2cnc3ccccc3c2N(C(C)=O)N1
Ans. 6

Qu. Please look at this compound and report its Therapeutic index LD50/ED50 (analgesic effect): CCCCCC1=Nc2cnc3ccccc3c2N(C(C)=O)N1
Ans. 16

Qu. Please look at this compound and report its Therapeutic index LD50/ED50 (analgesic effect): CC(=O)N1NC(CCC(C)C)=Nc2cnc3ccccc3c21
Ans. 20

* * *

Experiment: Anticonvulsive effect, inhibition of spasms provoked by pentamethylenetetrazole
Type: in vivo, white mice
Settings: mice, p.o., pentamethylenetetrazole
ATTRIBUTE MEASURED: Therapeutic index LD50/ED50 (pentamethylenetetrazole)

Qu. Please look at this compound and report its Therapeutic index LD50/ED50 (pentamethylenetetrazole): CCCCC1=Nc2cnc3ccccc3c2N(C(C)=O)N1 [Example 6]
Ans. 22,2

Qu. Please look at this compound and report its Therapeutic index LD50/ED50 (pentamethylenetetrazole): CCCCCCCCC1=Nc2cnc3ccccc3c2N(C(C)=O)N1 [Example 7]
Ans. 5,7

Qu. Please look at this compound and report its Therapeutic index LD50/ED50 (pentamethylenetetrazole): CN1C(=O)OC(C)(C)C1=O [trimethadione, 3,5,5-trimethyloxazolidine-2,4-dione, reference compound]
Ans. 4,3

Qu. Please look at this compound and report its Therapeutic index LD50/ED50 (pentamethylenetetrazole): CC(=O)N1NC(C(C)(C)C)=Nc2cnc3ccccc3c21 [Example 9]
Ans. 12

Qu. Please look at this compound and report its Therapeutic index LD50/ED50 (pentamethylenetetrazole): CC(=O)N1NC(CC(C)C)=Nc2cnc3ccccc3c21 [Example 8]
Ans. 27,8

* * *

Assay: Narcosis potentiating effect (hexobarbital sleeping time)
Assay type: in vivo, mice
Conditions: mice, p.o., hexobarbital
Experimental: The narcosis potentiating effect of the novel compounds of the formula I was tested on groups consisting of 6 mice each. The animals belonging to the control group received an oral dosage of 20 ml/kg of 0.9 percent aqueous sodium chloride solution, whereas the other animals were treated orally with the compound to be tested.
ATTRIBUTE MEASURED: Therapeutic index LD50/ED50 (narcosis potentiating effect)
Provide a numeric answer; units are not to be included.

Qu. Please look at this compound and report its Therapeutic index LD50/ED50 (narcosis potentiating effect): CCCC(C)(COC(N)=O)COC(N)=O [meprobamate, reference compound]
Ans. 4.2

Qu. Please look at this compound and report its Therapeutic index LD50/ED50 (narcosis potentiating effect): CC(=O)N1NC(CC(C)C)=Nc2cnc3ccccc3c21
Ans. 28.5

Qu. Please look at this compound and report its Therapeutic index LD50/ED50 (narcosis potentiating effect): CCCCCC1=Nc2cnc3ccccc3c2N(C(C)=O)N1
Ans. 10

Qu. Please look at this compound and report its Therapeutic index LD50/ED50 (narcosis potentiating effect): CC(=O)N1C(c2ccccc2)=NNc2c1cnc1ccccc21
Ans. 13.3

Qu. Please look at this compound and report its Therapeutic index LD50/ED50 (narcosis potentiating effect): CCCCC1=Nc2cnc3ccccc3c2N(C(C)=O)N1
Ans. 16

Qu. Please look at this compound and report its Therapeutic index LD50/ED50 (narcosis potentiating effect): CC(=O)N1NC(CCC(C)C)=Nc2cnc3ccccc3c21
Ans. 20
